Recorded log10 of Ki values (UniProt P00749) are given below.
readoutKind: log10 of Ki (log10 of the value in nM)

                                    compound  readoutkind  measured
 0  CC(C)COc1cccc(-c2nc3ccc(C(=N)N)cc3[nH]2)c1O  log10 of Ki      2.40
 1  C[C@H]1CCC[C@H](Oc2cccc(-c3nc4cc(C(=N)N)c(F)cc4[nH]3)c2O)C1  log10 of Ki      2.26
 2  CC(C)COc1cccc(-c2nc3cc(Cl)c(C(=N)N)cc3[nH]2)c1O  log10 of Ki      2.74
 3  C[C@H]1CC[C@@H](Oc2cccc(-c3nc4cc(F)c(C(=N)N)cc4[nH]3)c2O)CC1  log10 of Ki      2.00
 4  N=C(N)c1ccc2[nH]c(-c3cccc(Oc4ccccc4)c3O)cc2c1  log10 of Ki      0.90
 5  CC(C)COc1cccc(-c2cc3cc(C(=N)N)ccc3[nH]2)c1O  log10 of Ki      2.26
 6  C[C@H]1CC(C)(C)C[C@@H]1Oc1cccc(-c2nc3cc(F)c(C(=N)N)cc3[nH]2)c1O  log10 of Ki      2.04
 7  C[C@H]1CCC[C@@H]1Oc1cccc(-c2nc3cc(F)c(C(=N)N)cc3[nH]2)c1O  log10 of Ki      1.51
 8  N=C(N)c1cc2[nH]c(-c3cccc(OCC4CCCNC4)c3O)nc2cc1F (centres undefined)  log10 of Ki      2.66
 9   CCOc1cccc(-c2nc3cc(C(=N)N)ccc3[nH]2)c1O  log10 of Ki      2.85
10  N=C(N)c1cc2[nH]c(-c3cccc(OC4CCCC4)c3O)nc2cc1Cl  log10 of Ki      2.74
11  N=C(N)c1cc2[nH]c(-c3cccc(OC4CCCC4)c3O)nc2cc1F  log10 of Ki      2.34
12  CCOc1cccc(-c2nc3cc(F)c(C(=N)N)cc3[nH]2)c1O  log10 of Ki      2.46
13  C[C@H]1CCCC[C@@H]1Oc1cccc(-c2nc3cc(C(=N)N)c(F)cc3[nH]2)c1O  log10 of Ki      1.04
14  N=C(N)c1cc2[nH]c(-c3cccc(OCC4CCCO4)c3O)nc2cc1F (centres undefined)  log10 of Ki      1.90
15  C[C@@H]1CCCC[C@@H]1Oc1cccc(-c2nc3cc(C(=N)N)c(F)cc3[nH]2)c1O  log10 of Ki      1.51
16  CC(C)COc1cccc(-c2nc3cc(F)c(C(=N)N)cc3[nH]2)c1O  log10 of Ki      2.28
17  CCOc1cccc(-c2nc3cc(Cl)c(C(=N)N)cc3[nH]2)c1O  log10 of Ki      2.98
18  N=C(N)c1ccc2[nH]c(-c3cccc(OC4CCCC4)c3O)cc2c1  log10 of Ki      2.28

---

studySystem: Plasminogen (Homo sapiens)
Sequence (P00747 97-580 limits assumed): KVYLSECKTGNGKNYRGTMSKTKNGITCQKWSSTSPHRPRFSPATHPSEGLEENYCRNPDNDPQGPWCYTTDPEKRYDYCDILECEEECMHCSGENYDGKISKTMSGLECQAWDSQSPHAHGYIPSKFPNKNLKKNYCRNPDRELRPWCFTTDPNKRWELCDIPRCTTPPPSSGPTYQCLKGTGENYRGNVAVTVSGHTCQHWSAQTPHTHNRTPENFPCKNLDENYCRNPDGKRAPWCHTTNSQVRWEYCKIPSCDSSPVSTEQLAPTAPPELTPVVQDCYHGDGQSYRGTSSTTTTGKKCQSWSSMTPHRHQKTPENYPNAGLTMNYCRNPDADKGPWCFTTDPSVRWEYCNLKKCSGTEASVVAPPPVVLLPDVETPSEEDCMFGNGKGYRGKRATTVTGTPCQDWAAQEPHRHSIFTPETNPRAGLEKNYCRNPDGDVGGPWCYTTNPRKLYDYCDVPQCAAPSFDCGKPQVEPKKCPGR
Sequence (P00747 581-810 limits assumed): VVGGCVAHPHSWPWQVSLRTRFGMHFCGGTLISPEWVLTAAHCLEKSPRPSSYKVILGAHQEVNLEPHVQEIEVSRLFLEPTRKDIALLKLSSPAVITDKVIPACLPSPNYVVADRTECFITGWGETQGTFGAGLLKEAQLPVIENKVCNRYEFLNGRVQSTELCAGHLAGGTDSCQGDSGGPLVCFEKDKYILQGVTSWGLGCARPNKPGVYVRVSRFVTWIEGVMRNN
Class (by Ki) -- L = under 1 µM, M = from 1 µM up to 3 µM, H = 3 µM and over

                                   compound  assignedclass
0   CCOc1cccc(-c2cc3cc(C(=N)N)ccc3[nH]2)c1O              L
1  C[C@H]1CCC[C@@H]1Oc1cccc(-c2nc3cc(F)c(C(=N)N)cc3[nH]2)c1O              L
2  CCOc1cccc(-c2nc3cc(Cl)c(C(=N)N)cc3[nH]2)c1O              M
3  N=C(N)c1cc2[nH]c(-c3cccc(OCC4CCCNC4)c3O)nc2cc1F (stereo not given)              H
4  N=C(N)c1ccc2[nH]c(-c3cccc(OC4CCCC4)c3O)cc2c1              L
5  C[C@H]1CC[C@@H](Oc2cccc(-c3nc4cc(F)c(C(=N)N)cc4[nH]3)c2O)CC1              M
6  C[C@@H]1CCCC[C@@H]1Oc1cccc(-c2nc3cc(C(=N)N)c(F)cc3[nH]2)c1O              M
7  N=C(N)c1cc2[nH]c(-c3cccc(OC4CCNC4)c3O)nc2cc1F (stereo not given)              H
